Origin of values: patent US20220177589A1

assayed.system: chimeric BTLA of humanised-BTLA mice (human extracellular region, murine transmembrane and signaling … (human; mouse, UniProt Q7TSA3 184-306, limits assumed)
Sequence (Q7TSA3 other isoform, or with tags, fused parts or gaps mutant limits assumed): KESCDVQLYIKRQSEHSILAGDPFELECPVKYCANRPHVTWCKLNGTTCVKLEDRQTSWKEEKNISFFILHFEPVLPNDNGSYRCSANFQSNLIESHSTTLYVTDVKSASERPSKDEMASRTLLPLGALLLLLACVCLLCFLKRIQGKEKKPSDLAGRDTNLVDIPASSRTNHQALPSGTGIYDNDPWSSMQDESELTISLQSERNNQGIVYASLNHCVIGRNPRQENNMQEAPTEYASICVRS
test: cell-based or functional assay
Give AntiCD3/CD28 (CD69+ CD4 T cells) repeat 1, % inhibition for every item shown.
Numbers only, in %.

- binder: "6.2 (antibody, IgG1, V domains shown) VH: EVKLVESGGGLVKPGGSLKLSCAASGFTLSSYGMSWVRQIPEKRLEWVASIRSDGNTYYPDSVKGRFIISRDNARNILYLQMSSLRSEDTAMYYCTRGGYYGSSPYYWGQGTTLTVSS VL: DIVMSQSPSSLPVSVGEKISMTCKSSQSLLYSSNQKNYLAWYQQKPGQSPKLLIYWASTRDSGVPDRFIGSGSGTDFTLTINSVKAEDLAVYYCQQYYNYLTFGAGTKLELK"
  quantitative.readout: 53

query: Reported AntiCD3/CD28 (CD69+ CD4 T cells) repeat 1, % inhibition, binder 16H2 (antibody, IgG1, V domains shown) VH: EVQLQQSGPELVQPGASVKISCKASGYTFTDYYMIWVKQSHGKSLEWIGNINPNNGGTTYNQKFKGKATLTVDKSSSTAYMGLPSLTSEDSAVYYCARGGLRPLYFDYWGQGTTLTVSS VL: NIVMTQSPKSMSMSVGERVTLSCKASENVDTYVSWYQQKPEQSPKLLIYGASNRYTGVPDRFTGSGSATDFTLTISSVQAEDLADYHCGQSYSYPLTFGAGTKLELI : ____
result: 51
